These entries and their values trace back to patent US20240360228A1.

# target-entity: T1, human chemokine (C-C motif) receptor 8 (CCR8) (human, UniProt P51685 1-355)
# T1 construct: On human peripheral blood lymphocytes / PBMC (native) or on human CCR8 GFP-transfected Ba/F3 cells; also called hCCR8; human CCR8
# T1 sequence (P51685 whole entry): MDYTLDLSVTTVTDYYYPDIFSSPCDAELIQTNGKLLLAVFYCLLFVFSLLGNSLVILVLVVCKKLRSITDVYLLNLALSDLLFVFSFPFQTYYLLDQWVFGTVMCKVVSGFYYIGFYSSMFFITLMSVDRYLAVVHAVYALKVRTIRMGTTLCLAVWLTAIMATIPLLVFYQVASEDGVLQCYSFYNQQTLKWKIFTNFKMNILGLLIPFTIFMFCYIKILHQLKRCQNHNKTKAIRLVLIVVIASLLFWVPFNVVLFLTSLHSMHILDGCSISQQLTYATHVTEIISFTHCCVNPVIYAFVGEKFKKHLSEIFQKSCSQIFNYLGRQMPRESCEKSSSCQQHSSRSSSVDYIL
# protocol-description: flow cytometry blocking, PBMC CCR8+ CD4+ cells; competitor PE-AB4 (its MFI is read)
endpoint-name: MFI

Memo: AB15 (antibody, V domains shown, Hybridoma monoclonal; also called antibody 15; clone 15) VH: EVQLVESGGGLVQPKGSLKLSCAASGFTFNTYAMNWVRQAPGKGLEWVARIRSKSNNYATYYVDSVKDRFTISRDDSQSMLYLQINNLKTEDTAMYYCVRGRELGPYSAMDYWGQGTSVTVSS VL: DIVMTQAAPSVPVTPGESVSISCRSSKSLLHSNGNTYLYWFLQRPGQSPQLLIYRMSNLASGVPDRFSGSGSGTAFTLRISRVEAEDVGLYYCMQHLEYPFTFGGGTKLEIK , reported MFI: 994

Memo: AB13 (antibody, V domains shown, Hybridoma monoclonal; also called antibody 13; clone 13) VH: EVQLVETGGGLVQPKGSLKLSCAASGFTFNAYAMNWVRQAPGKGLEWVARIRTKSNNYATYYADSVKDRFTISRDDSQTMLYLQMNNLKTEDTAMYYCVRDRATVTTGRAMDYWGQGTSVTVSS VL: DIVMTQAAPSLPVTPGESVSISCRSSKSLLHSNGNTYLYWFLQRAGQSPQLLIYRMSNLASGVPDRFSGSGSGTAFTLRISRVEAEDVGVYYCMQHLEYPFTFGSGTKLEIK , reported MFI: 975

Memo: AB14 (antibody, V domains shown, Hybridoma monoclonal; also called antibody 14; clone 14) VH: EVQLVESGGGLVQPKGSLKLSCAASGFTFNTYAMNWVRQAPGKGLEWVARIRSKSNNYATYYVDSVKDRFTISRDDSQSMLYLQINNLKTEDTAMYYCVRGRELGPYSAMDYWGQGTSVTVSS VL: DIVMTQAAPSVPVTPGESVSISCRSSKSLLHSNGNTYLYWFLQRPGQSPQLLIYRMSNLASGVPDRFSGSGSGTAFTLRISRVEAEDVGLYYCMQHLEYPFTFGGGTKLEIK , reported MFI: 951

Memo: AB3 (antibody, V domains shown, Hybridoma monoclonal; also called antibody 3; clone 3) VH: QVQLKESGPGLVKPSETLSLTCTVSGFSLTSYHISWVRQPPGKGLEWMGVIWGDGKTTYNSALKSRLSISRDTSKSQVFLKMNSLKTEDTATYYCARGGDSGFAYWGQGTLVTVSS VL: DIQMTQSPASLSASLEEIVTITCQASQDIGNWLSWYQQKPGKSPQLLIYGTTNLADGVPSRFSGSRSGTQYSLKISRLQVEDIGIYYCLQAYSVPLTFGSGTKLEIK , reported MFI: 446

Memo: AB1 (antibody, V domains shown, Hybridoma monoclonal (mice or rats immunised); Used purified and PE-conjugated; also called antibody 1; clone 1) VH: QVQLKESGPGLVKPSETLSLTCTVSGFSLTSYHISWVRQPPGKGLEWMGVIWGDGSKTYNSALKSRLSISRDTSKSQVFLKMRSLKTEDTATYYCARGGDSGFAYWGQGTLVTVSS VL: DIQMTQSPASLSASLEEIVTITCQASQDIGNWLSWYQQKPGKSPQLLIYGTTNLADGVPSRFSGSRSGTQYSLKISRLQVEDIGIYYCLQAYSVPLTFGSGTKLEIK , reported MFI: 0
